# assay.text: Restrictive medium S. cerevisiae growth inhibition, OD615, pilot screen of yeast lifespan reduction project, restrictive growth control (AID 706);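 also: modified DeaD lifespan yeast strain shifted to restrictive glucose medium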
# run.parameters: OD615, 48 h, at 10 µM, active compounds read high
measured.quantity: growth inhibition (%)
Only the number, expressed in %, is required.

[[record]]
compound = "C=C(C)CSc1nc2c(c(=O)[nH]c(=O)n2C)n1Cc1ccccc1"
measured_number = -22.9

[[record]]
compound = "CSc1cccc(NC(=O)CN2C(=O)c3ccccc3S2(=O)=O)c1"
measured_number = 3.68

[[record]]
compound = "CCN1CCCC(NC(=O)c2scc3c2CCCC3)C1 (stereo not drawn)"
measured_number = -5.2

[[record]]
compound = "COC(=O)c1nc(NC(=O)C(C)(C)C)n[nH]1"
measured_number = -18.8

[[record]]
compound = "CCCCCn1c(CN2CC(C)OC(C)C2)nc2c1c(=O)n(C)c(=O)n2C (stereo not drawn)"
measured_number = 0.38


Just so you know, measured growth inhibition for COc1ccc(C(=O)Nc2cccc(C(C)=O)c2)cc1S(=O)(=O)N1CCOCC1 came out at -18.5

Just so you know, measured growth inhibition for CCSc1nnc(NC(=O)CC)s1 came out at -13.4

Just so you know, measured growth inhibition for O=C(Nc1c(C(=O)N2CCCCC2)cnn1-c1ccccc1)c1ccco1 came out at -5.33

Values were extracted from PubChem BioAssay.
